# target-or-system: Savinase® 16.0L (Lederbergia lenta, UniProt P29600)
# Construct: purchased Sigma-Aldrich
# Sequence (P29600 whole entry): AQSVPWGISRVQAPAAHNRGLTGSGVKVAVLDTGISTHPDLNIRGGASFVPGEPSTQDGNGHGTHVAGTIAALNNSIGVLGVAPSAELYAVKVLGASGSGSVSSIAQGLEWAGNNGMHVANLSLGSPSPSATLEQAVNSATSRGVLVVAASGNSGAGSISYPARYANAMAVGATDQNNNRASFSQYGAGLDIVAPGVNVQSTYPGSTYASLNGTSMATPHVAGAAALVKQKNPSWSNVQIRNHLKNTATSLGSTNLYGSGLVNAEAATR
# test-summary: Protease storage stability in liquid formulations at 37° C. (Suc-AAPF-pNA assay)
# Format: biochemical
# experimental-conditions: base formulation I, 2.5 wt% compound, 0.7 wt% Savinase 16.0 L; 14 d
outcome-measure: protease activity in the course of time of storage at 37° C.

Task: # lookup: Savinase® 16.0L (Lederbergia lenta, UniProt P29600) protease activity in the course of time of storage at 37° C., key = CCOC(=O)CC(O)(CC(=O)OCC)C(=O)OCC [A.1, Triethylcitrate]
Result: 89%

Task: # lookup: Savinase® 16.0L (Lederbergia lenta, UniProt P29600) protease activity in the course of time of storage at 37° C., key = CCCCOC(=O)CC(CC(=O)OCCCC)(OC(C)=O)C(=O)OCCCC [A.4, Acetyltributylcitrate]
Result: 92%

* * *

# target-or-system: Savinase® 16.0L (Lederbergia lenta)
# Construct: purchased Sigma-Aldrich
# test-summary: Protease storage stability in liquid formulations at 37° C. (Suc-AAPF-pNA assay)
# Assay type: biochemical
# experimental-conditions: base formulation I, 2.5 wt% compound, 0.7 wt% Savinase 16.0 L; 3 d
outcome-measure: protease activity in the course of time of storage at 37° C. (%)
Supply the numeric figure in %, leaving out any unit text.

O=C(O)CC(O)(CC(=O)O)C(=O)O [B.1, citric acid, reference compound] : 94
CC(=O)OCC(COC(C)=O)OC(C)=O [B.4, glyceroltriacetate, reference compound] : 91
CCOC(=O)CC(CC(=O)OCC)(OC(C)=O)C(=O)OCC [A.5, Acetyltriethylcitrate] : 96

Task: Tell me protease activity in the course of time of storage at 37° C. reported for CCOC(=O)CC(O)(CC(=O)OCC)C(=O)OCC [A.1, Triethylcitrate]
Result: 96

* * *

Here the recorded protease activity in the course of time of storage at 37° C. is given for each entry.
# target-or-system: Savinase® 16.0L (Lederbergia lenta, UniProt P29600)
# Construct: purchased Sigma-Aldrich
# test-summary: Protease storage stability in liquid formulations at 37° C. (Suc-AAPF-pNA assay)
# Assay type: biochemical
# experimental-conditions: base formulation II, 2.5 wt% compound, 0.7 wt% Savinase 16.0 L; T0
Supply the numeric figure in %, leaving out any unit text.

Consider the reported protease activity in the course of time of storage at 37° C. for these compounds:
CCOC(=O)CC(O)(CC(=O)OCC)C(=O)OCC [A.1, Triethylcitrate] : 100
CCOC(=O)CC(O)(CC(=O)O)C(=O)O (stereo not shown) [A.6, Monoethylcitrate] : 101
CCOC(=O)CC(CC(=O)OCC)(OC(C)=O)C(=O)OCC [A.5, Acetyltriethylcitrate] : 102

Next compound, protease activity in the course of time of storage at 37° C. to be filled in.
Task: Tell me protease activity in the course of time of storage at 37° C. reported for O=C(CC(O)(CC(=O)OCc1ccccc1)C(=O)OCc1ccccc1)OCc1ccccc1 [A.8, Tribenzylcitrate]
Result: 100

* * *

# target-or-system: Savinase® 16.0L (Lederbergia lenta)
# Construct: purchased Sigma-Aldrich
# test-summary: Protease storage stability in liquid formulations at 37° C. (Suc-AAPF-pNA assay)
# Type: biochemical
# experimental-conditions: base formulation V, 2.0 wt% compound, 0.7 wt% Savinase 16.0 L; 21 d
outcome-measure: protease activity in the course of time of storage at 37° C. (%)
Supply the numeric figure in %, leaving out any unit text.

Consider the reported protease activity in the course of time of storage at 37° C. for these compounds:
CCOC(=O)CC(O)(CC(=O)OCC)C(=O)OCC [A.1, Triethylcitrate] : 83
O=C(O)CC(O)(CC(=O)O)C(=O)O [B.1, citric acid, reference compound] : 65
CCCCOC(=O)CC(O)(CC(=O)OCCCC)C(=O)OCCCC [A.3, Tributylcitrate] : 85

Next compound, protease activity in the course of time of storage at 37° C. to be filled in.
Task: Tell me protease activity in the course of time of storage at 37° C. reported for O=C(CC(O)(CC(=O)OCc1ccccc1)C(=O)OCc1ccccc1)OCc1ccccc1 [A.8, Tribenzylcitrate]
Result: 84
